B1: POU domain, class 4, transcription factor 1, residues 266 to 347; numbered along this chain, Q01851 (parent)
chain: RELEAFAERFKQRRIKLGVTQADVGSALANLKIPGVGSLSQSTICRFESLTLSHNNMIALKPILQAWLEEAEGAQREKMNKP

# Variants of: B1
# PROTOCOL_TEXT: abundance fitness (aPCA) (normalised: wild type 0, dead -1); higher = more abundant; growth selection in yeast, the domain comes from the species named
# MEASUREMENT_SETUP: Homo sapiens
Each entry gets false (0) if its abundance fitness stays under -0.4, and true (1) if its abundance fitness is -0.4 or above.

Decide: abundance fitness of V36R >= -0.4?
true (1)

One more variant: L52W
false (0)

Can you check A59V next?
true (1)

What would you report for L64P ?
false (0)

Param item: R14K
false (0)

Next entry: L50D
false (0)

Could you do the same for A71F , please?
true (1)

Ok, now E4N
true (1)

Also need P82A , thanks.
true (1)

Request: S49L
true (1)

Then this variant: L3C
false (0)
